Some compounds, each annotated with its measured melting point.
metric: melting point

given_smiles=CCC(CC)c1ccc(Cl)c2nc(Oc3c(Cl)cc(Cl)c4c3CN(C)C4)n(C)c12 metric="melting point" result="148 to 149 °C"
given_smiles=CCC(CC)c1ccc(OC)c2nc(Nc3ccc(C(F)(F)F)cc3Cl)n(C)c12 metric="melting point" result="170 to 171 °C"
given_smiles=CCC(CC)c1ccc(OC)c2nc(Nc3ccc(OC(F)(F)F)cc3Cl)n(C)c12 metric="melting point" result="175 to 177 °C"
given_smiles=CCC(CC)c1ccc(Cl)c2nc(Oc3c(Cl)cc(OC(F)(F)F)cc3S(C)(=O)=O)n(C)c12 metric="melting point" result="164 to 165 °C"

---

Some compounds, each annotated with its measured melting point.
metric: melting point

compound="CCC(CC)c1ccc(Cl)c2nc(Nc3c(C)cc([S+](C)[O-])cc3OC)n(C)c12 (centres unmarked)" metric="melting point" result="222 to 223 °C"
compound=CCC(CC)c1ccc(OC)c2nc(Nc3ccc(Cl)cc3Cl)n(C)c12 metric="melting point" result="198 to 200 °C"
compound=CCC(CC)c1ccc(OC)c2nc(Oc3c(Cl)cc(Cl)cc3CN(C)C)n(C)c12.Cl metric="melting point" result="169 to 170 °C"
compound=CCC(CC)c1ccc(Cl)c2nc(Nc3c(C)cc(SC)cc3OC)n(C)c12 metric="melting point" result="223 to 225 °C"
compound=CCC(CC)c1ccc(Cl)c2nc(Oc3c(C)cc(C(C)=O)cc3Cl)n(C)c12 metric="melting point" result="160 to 161 °C"

---

metric: melting point

compound=CCC(CC)c1ccc(Cl)c2nc(Nc3c(C)cc(-n4ccc(C(F)(F)F)n4)cc3OC)n(C)c12 result="249 to 251 °C"
compound="CCC(CC)c1ccc(Cl)c2nc(Nc3c(C)cc(Cl)cc3[S+](C)[O-])n(C)c12 (centres unmarked)" result="212 to 213 °C"
compound=CCC(CC)c1ccc(Cl)c2nc(Oc3c(C)cc(Br)cc3Cl)n(C)c12 result="163 to 164 °C"
compound=CCC(CC)c1ccc(Cl)c2nc(Oc3ccc(N(C)C)cc3Cl)n(C)c12 result="148 to 149 °C"
compound=CCC(CC)c1ccc(Br)c2nc(Oc3c(C)cc(Cl)cc3Cl)n(C)c12 result="146 to 147 °C"
compound=CCC(CC)c1ccc(OC)c2nc(Oc3c(Cl)cc(N(C)C)cc3Cl)n(C)c12 result="176 to 177 °C"
compound=CCC(CC)c1ccc(Cl)c2nc(Oc3c(Cl)cc(Cl)cc3C#N)n(C)c12 result="155 to 156 °C"
compound=CCC(CC)c1ccc(Cl)c2nc(Nc3c(C)cc(S(C)(=O)=O)cc3OC)n(C)c12 result="234 to 236 °C"
compound=CCC(CC)c1ccc(Cl)c2nc(Nc3c(C)cc(Cl)cc3SC)n(C)c12 result="167 to 169 °C"
compound=CCC(CC)c1ccc(Cl)c2nc(Oc3c(OC)cc(C(F)(F)F)nc3C)n(C)c12 result="178 to 179 °C"
compound=CCC(CC)c1ccc(Cl)c2nc(Nc3c(C)cc(-n4cccn4)cc3OC)n(C)c12 result="237 to 239 °C"

---

metric: melting point

compound="CCC(CC)c1ccc(Cl)c2nc(Nc3c(C)cc(C(N)=O)cc3OC)n(C)c12 [Example 48]" result="298 to 299 °C"
compound="CCC(CC)c1ccc(Cl)c2nc(Oc3c(C)cc(SC)cc3Cl)n(C)c12 [Example 36]" result="141 to 143 °C"
compound="CCC(CC)c1cccc2nc(Oc3c(C)cc(Cl)cc3Cl)n(C)c12 [Example 91]" result="91 to 92 °C"
compound="CCC(CC)c1ccc(OC)c2nc(Oc3ccc(Cl)cc3CN(C)C)n(C)c12 [Example 9]" result="121 to 123 °C"
compound="CCC(CC)c1ccc(OC)c2nc(Oc3ccc(OC(F)(F)F)cc3-n3ccnc3)n(C)c12 [Example 82]" result="168 to 169 °C"
compound="CCC(CC)c1ccc(Cl)c2nc(Nc3ccc(Cl)cc3Cl)n(CCO)c12 [Example 100]" result="192 to 193 °C"
compound="CCC(CC)c1ccc(Cl)c2nc(Oc3c(Cl)cc(Cl)cc3N(C)C)n(C)c12 [Example 24]" result="172 to 173 °C"
compound="CCC(CC)c1ccc(Cl)c2nc(Oc3c(Cl)cc(OC(F)(F)F)cc3Br)n(C)c12 [Example 41]" result="149 to 151 °C"
compound="CCC(CC)c1ccc(Cl)c2nc(Nc3c(C)cc(Cl)cc3Br)n(C)c12 [Example 49]" result="232 to 233 °C"
